These measurements were taken from patent US20070105771A1.

TARGET SYSTEM: T1, human CD26-derived 13 mer peptide 103 (human)
T1 peptide: VRVPYPKAGAVNP
PROTOCOL DESCRIPTION: peptide microarray
REPORTED PROPERTY: Mean Signal Value
// no unit, no text: just the number

Mean Signal Value lookup needed for rhuMAb 409 (antibody, human IgG1, V domains shown, CM03 VH and VL with human IgG1 heavy chain constant region and human kappa constant region; also called X409) VH: QVKLQESGPGLVQPSQTLSITCTVSGFSLTTYGVHWVRQSPGKGLEWLGVIWGGGRTDYDAAFISRLSISKDNSKSQVFFKMNSLQANDTAIYYCVRNRHDWFDYWGQGTTVTVSS VL: DIQMTQSPSSLSASLGDRVTITCSASQGIRNSLNWYQQKPDGAVKLLIYYSSNLHSGVPSRFSGSGSGTDFSLTISNLEPEDIATYYCQQSIKLPFTFGSGTKLEIKR , thanks.
0
